These data points were gathered from patent US20250326840A1.

# Measured on: T1, QP002 (biotinylated in the blocking assays, sites not given)
# T1 construct: also called SIRPα-FC; Biotin-QP002
# Assay text: blocking ELISA: QP001.2 (CD47) coated, biotin-QP002 (SIRPα-FC) mixed with the antibody, HRP-streptavidin; blocked ligand: CD47; unit from the x axis Log[Conc.(ug/ml)]
Reported property: IC50 (µg/mL)
Report as a plain number; the unit µg/mL is understood.

Guide cases for IC50, answers given:
QP256291 (antibody, human IgG4, V domains shown, Human IgG4 heavy constant region and kappa CL) VH: QVQLVQSGAEVKKPGASVKVSCKASGYTFTNYWINWVRQAPGQGLEWIAMIDPSDSETHYNQIFKDRATLTTDTSTSTAYMELRSLRSDDTAVYYCAMDYGSLYAMDYWGRGTLVTVSS VL: DIVLTQSPDSLAVSLGERATINCRASKSVGSSGYNWLFWYQQKPGQPPKLLIYLASNRDSGVPDRFSGSGSGTDFTLTISSLQAEDVAVYYCQHSRELPTFGQGTKLEIK :: 0.0234
QP2561770 (antibody, human IgG4, V domains shown, Human IgG4 heavy constant region and kappa CL) VH: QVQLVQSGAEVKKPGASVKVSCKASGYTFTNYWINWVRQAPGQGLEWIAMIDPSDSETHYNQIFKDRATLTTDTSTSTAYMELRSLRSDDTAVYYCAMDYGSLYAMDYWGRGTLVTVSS VL: DIVLTQSPDSLAVSLGERATINCRASQSVRSSGYNWIFWYQQKPGQPPKLLIYLASNRDSGVPDRFSGSGSGTDFTLTISSLQAEDVAVYYCQESRELPTFGQGTKLEIK :: 0.025
QP2561771 (antibody, human IgG4, V domains shown, Human IgG4 heavy constant region and kappa CL) VH: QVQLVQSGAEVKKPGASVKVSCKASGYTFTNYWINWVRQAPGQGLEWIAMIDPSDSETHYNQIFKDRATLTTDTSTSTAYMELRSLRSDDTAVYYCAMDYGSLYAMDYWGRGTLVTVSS VL: DIVLTQSPDSLAVSLGERATINCRASKSVSSSGYNWIFWYQQKPGQPPKLLIYLASNRDSGVPDRFSGSGSGTDFTLTISSLQAEDVAVYYCQESRELPTFGQGTKLEIK :: 0.0233

Could you now look at the following binder, please?
// recorded IC50 for QP256279 (antibody, human IgG4, V domains shown, Human IgG4 heavy constant region and kappa CL) VH: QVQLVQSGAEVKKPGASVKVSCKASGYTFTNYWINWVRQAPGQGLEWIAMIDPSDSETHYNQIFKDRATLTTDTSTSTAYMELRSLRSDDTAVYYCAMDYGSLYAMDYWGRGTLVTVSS VL: DIVLTQSPDSLAVSLGERATINCRASQSVRSSGYNWIFWYQQKPGQPPKLLIYLASNRDSGVPDRFSGSGSGTDFTLTISSLQAEDVAVYYCQHSRELPTFGQGTKLEIK : 0.0129
